- assay explanation: TLR3 IRF3 reporter activation blockers – cell-based, poly I:C stimulus, luciferase, 10K MLSCN set, primary screen (AID 602277)
- experimental parameters: HEK293-TLR3 RL24 IRF3 luciferase reporter, at 10 µM, stronger effect = higher value
Parameter threshold = 20%. Response is MET when inhibition meets or exceeds it, else NOT MET.

{"compound": "Cc1ccc(SC(C)c2nc(-c3ccccc3)no2)cc1 (configuration not stated)", "label": "NOT MET"}
{"compound": "O=C(Nc1ccncc1)C1c2ccccc2Oc2ccccc21", "label": "NOT MET"}
{"compound": "CC(=O)Nc1ccc(NS(=O)(=O)C(F)(F)F)cc1", "label": "MET"}
{"compound": "CCN(CC)S(=O)(=O)c1ccc(F)c(C(=O)NCCC(C)C)c1", "label": "NOT MET"}
{"compound": "CCn1nc(CC(=O)Nc2nnc(CC(=O)N3CCCCC3)s2)c2ccccc2c1=O", "label": "MET"}

Exercise: Hi team, for `O=C(O)CCNc1nc(-c2ccccc2)nc2ccccc12` , is the recorded inhibition at or above 20%?
Key: NOT MET

Exercise: Thanks! And `CCOC(=O)c1sc2cccc(F)c2c1N` ?
Key: NOT MET

Exercise: Param item: `CCc1nnc(NC(=O)c2cc3c(s2)CCCCC3)s1`
Key: NOT MET

Exercise: Now this one: `COc1ccc(S(=O)(=O)N2CCC(C(=O)NCc3ccco3)CC2)cc1`
Key: NOT MET

Exercise: Try this compound next: Cc1ccc(S(=O)(=O)Cn2nnnc2CN(Cc2ccco2)CC2CCCO2)cc1 (configuration not stated)
Key: NOT MET

Exercise: Then what about the compound Cc1nc2c(-c3ccc(F)cc3)c(C)nn2c(C)c1CCC(=O)NC(C)CCc1ccco1 (configuration not stated) ?
Key: MET

---

- assay explanation: endothelial E-selectin expression blockers – imaging, HUVEC, immunofluorescence, MLSMR starter and 10KST1 sets, primary screen (AID 487);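 as to nuclei count: 100% = median nuclei count of all wells on the same plate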
- experimental parameters: HUVEC TNFalpha-induced E-selectin immunofluorescence imaging, at 2 µM; measured here: cell number, toxicity
The following compounds are listed with their measured nuclei count values.

Exercise: Requested read-out: nuclei count. Entry: `CCOc1ccccc1NC(=O)CCN1CCN(S(=O)(=O)c2ccc(Br)cc2)CC1`
Key: 65.1%

Exercise: Further, for `COc1ccc(-n2ncc3c(=O)n(CC(=O)OCc4ccccc4)cnc32)cc1` ?
Key: 101%

Exercise: Now the same for `CCN1C(=O)Cc2cc(S(=O)(=O)N3CCOCC3)ccc21`
Key: 98.4%

---

- assay explanation: endothelial E-selectin expression blockers – imaging, HUVEC, immunofluorescence, MLSMR starter and 10KST1 sets, primary screen (AID 487);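 as to inhibition: signal is fraction of cell area covered by stained E-selectin grains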
- experimental parameters: HUVEC TNFalpha-induced E-selectin immunofluorescence imaging, at 2 µM; stronger effect = higher value
This section presents compounds with their documented inhibition values.
Report as a plain number; the unit % is understood.

Solved entries:
{"compound": "Cc1cc(=O)n(C)c(=O)n1CCCCCN1CCCC1", "reported result": -52}
{"compound": "CCCCn1c(NC(=O)CC)c(C#N)c2nc3ccccc3nc21", "reported result": 45.9}

Now for the compound whose inhibition we want.
Exercise: Return reported inhibition; argument: `COc1ccc(C)cc1-n1c(N)c(C#N)c(C#N)c1-c1ccc(OC)c(OC)c1OC`
Key: -9.7

---

Here the recorded inhibition is given for each entry.
- assay explanation: blockers of RIG-like receptor reporter activation – cell-based, Sendai virus stimulus, luciferase, 10K MLSCN set, TLR/RLR signaling modifier project, primary screen (AID 602276);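 also: firefly luciferase from ISG56 promoter only with Renilla not read in this screen; 0% = Sendai virus plus DMSO and 100% = medium plus DMSO without virus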
- experimental parameters: HEK293 RL24 IRF3 luciferase reporter, at 10 µM, stronger effect = higher value
Note: unit % is implicit; provide only the numeric part.

# count of solved cases: 3
{"molecule": "Cc1c(C(=O)N2CCOCC2)oc2ccc(S(=O)(=O)N3CCCC3)cc12", "result units": "%", "reported result": -1.69}
{"molecule": "COC(=O)Cc1c(C)nc2nc[nH]n2c1=O", "result units": "%", "reported result": 8.47}
{"molecule": "COC(=O)CNc1nc(C2CC2)nc2c1nnn2Cc1ccccc1Cl", "result units": "%", "reported result": 18.2}

Exercise: Can you share its inhibition? I mean this molecule: Cc1ccc(S(=O)(=O)Cn2nnnc2CN(Cc2ccco2)CC2CCCO2)cc1 (configuration not stated)
Key: -5.71

Exercise: Do the same for `CNc1nnc(-c2cccc(N(C)C)c2)s1` please
Key: -27.7

Exercise: Next up: Cc1nc(C)c(C(=O)C2=C(O)C(=O)N(CCN3CCOCC3)C2c2ccco2)s1 (configuration not stated)
Key: 11

Exercise: Would you kindly repeat that for `COC(=O)c1ccccc1S(=O)(=O)NC(=O)c1ccccc1` ?
Key: 13.5

Exercise: Input `Cn1c(-c2ccc(C(C)(C)C)cc2)n[nH]c1=S`
Key: -11.8

Exercise: Note, next up: `C(=C\c1ccccc1)/CSc1nnc(-c2ccccn2)n1Cc1ccco1`
Key: 68.5

Exercise: Then CC(OC(=O)C1CC=CCC1C(N)=O)C(Cl)=C(Cl)Cl (configuration not stated) ?
Key: -2.75

Exercise: Here is the next molecule: `CC1(C)CC(=O)c2cnc(NC(=O)CCc3ccccc3)nc2C1`
Key: 14.3

Exercise: Same lookup for CCCCC(O)(C(NC=O)C(=O)OC)C(F)(F)F (configuration not stated) , please.
Key: 22

Exercise: Then what about the molecule CC1CC(NC(=O)c2cnc3n(c2=O)CCS3)CC(C)(C)C1 (configuration not stated) ?
Key: 16.9

Exercise: Cool, now `COC(=O)c1ccccc1NC(=O)c1ccc(COc2ccccc2)o1`
Key: -25.9

Exercise: Now the same for `COc1ccccc1NC(=O)CSc1nnc(CC(=O)Nc2ccccc2)n1C`
Key: 8.73

Exercise: Same lookup for O=C(CC(SCCO)c1ccc2c(c1)OCO2)c1ccco1 (configuration not stated) , please.
Key: -31.1

Exercise: Another molecule: `CCN(CC(=O)Nc1ccc(S(N)(=O)=O)cc1)S(=O)(=O)c1cc(C)ccc1OC`
Key: -18.9

Exercise: Then `Cc1cccc(NC(=O)c2ccc3ccccc3n2)n1` ?
Key: -11.1

Exercise: Same thing, different molecule: `Cc1cc(C)c(C#N)c(SCc2ccc(C#N)cc2)n1`
Key: 5.07

Exercise: Now give it for `CCSc1nnc(NC(=O)c2ccccn2)s1` too.
Key: 4.15

---

Measured nuclei count values are reported for all entries that follow.
- assay explanation: endothelial E-selectin expression blockers – imaging, HUVEC, immunofluorescence, MLSMR starter and 10KST1 sets, primary screen (AID 487);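 as to nuclei count: 100% = median nuclei count of all wells on the same plate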
- experimental parameters: HUVEC TNFalpha-induced E-selectin immunofluorescence imaging, at 2 µM; measured here: cell number, toxicity
// return numeric value only (unit: %, not printed)

Exercise: Request the reported nuclei count associated with CCOC(=O)C1=C(C)OC(N)=C(C#N)C1c1ccoc1 (stereo unspecified)
Key: 78.9

Exercise: // next record `Cc1cnc(NC(=O)CSc2nnc(COc3c(C)cccc3C)o2)s1`
Key: 121

Exercise: `CCn1cc(SCC(=O)Nc2cc(C)on2)c2ccccc21` , same question.
Key: 86.4

Exercise: How about `O=C(CN1C(=O)c2ccccc2C1=O)Nc1ccccc1C(=O)N1CCCC1` ?
Key: 97.4

Exercise: `CCCCOc1ccc(-c2ncc(Cl)cn2)cc1` ?
Key: 115

Exercise: And then CCOc1ccc(N2CC(C(=O)NCCc3ccc(OC)c(OC)c3)CC2=O)cc1 (stereo unspecified) , what is it?
Key: 163

Exercise: Also need `FC(F)(F)c1cc(-c2ccco2)nc(NCc2ccco2)n1` , thanks.
Key: 94.8

Exercise: Repeat for the following compound: `CCOc1ccc2nc(SCC(=O)N3CCCCCC3)c(C#N)cc2c1`
Key: 150

Exercise: Same lookup for `CS(=O)(=O)N(CC(=O)N1CCc2ccccc2C1)c1ccc2c(c1)OCO2` , please.
Key: 77.8

Exercise: Also, `O=C(O)c1ccc(-c2ccc(O)c(F)c2)cc1` please.
Key: 104

Exercise: Next compound up: O=C(NCC1CCCO1)C1c2ccccc2C(=O)N1C1CCCCCC1 (stereo unspecified)
Key: 109

---

- target: Voltage-gated potassium channel subunit beta-2 (Rattus norvegicus) (UniProt P62483)
- Sequence (P62483 whole entry, looked up): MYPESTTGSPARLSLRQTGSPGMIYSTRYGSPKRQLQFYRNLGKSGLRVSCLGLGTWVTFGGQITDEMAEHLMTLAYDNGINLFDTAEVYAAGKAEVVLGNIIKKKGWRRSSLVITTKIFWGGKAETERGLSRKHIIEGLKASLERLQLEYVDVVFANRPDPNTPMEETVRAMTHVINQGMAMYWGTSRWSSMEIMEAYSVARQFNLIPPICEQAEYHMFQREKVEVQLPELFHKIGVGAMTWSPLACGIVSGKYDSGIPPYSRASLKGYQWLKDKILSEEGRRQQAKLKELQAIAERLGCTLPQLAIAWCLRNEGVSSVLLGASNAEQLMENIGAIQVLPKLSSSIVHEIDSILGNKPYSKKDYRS
- assay explanation: inhibitors of rat Kvbeta2 reductase activity – biochemical, NADPH fluorescence, primary screen (AID 622);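 also: slope of raw intensity against log time taken from 70 to 1610 s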
- experimental parameters: recombinant KvBeta, 4-cyanobenzaldehyde reduction, at 10 µM, stronger effect = higher value
Tag: True if measured fluorescence slope is not below -0.4, False if it is.

{"compound": "COc1ccc2[nH]c(=O)c(CN(C(=O)c3cccnc3)c3ccccc3OC)cc2c1", "label": "False"}
{"compound": "COc1cccc(-c2nnn(CC(=O)O)n2)c1", "label": "False"}
{"compound": "CCCCn1c(=O)[nH]c(=O)c2c1nc(-c1ccncc1)n2CCOC", "label": "False"}
{"compound": "COc1ccc(NC(=O)CSc2nnc(Cc3cccn3C)n2-c2ccc(F)cc2)cc1OC", "label": "False"}
{"compound": "CCS(=O)(=O)NCCc1cc2c(OC)ccc(OC)c2[nH]c1=O", "label": "False"}

Exercise: Check the entry Cc1cccc(NC(=O)C2CCCN(C(=O)Nc3ccccc3)C2)c1C (stereo not given) : does fluorescence slope equal or exceed -0.4?
Key: False

Exercise: Repeat for the following compound: `CCCn1cc(SCC(N)=O)c2ccccc21`
Key: True

Exercise: Next compound: `CN(Cc1ccccc1)S(=O)(=O)c1ccc(S(=O)(=O)N2CCN(CCC#N)CC2)cc1`
Key: False

Exercise: What would you report for CCOC(=O)N1CCC(N2C(=O)c3ccccc3C2Nc2ccc3c(C)cc(=O)oc3c2)CC1 (stereo not given) ?
Key: True

Exercise: What would you report for `Cc1ccc2c(c1)nnn2C1CCN(C(=O)NC23CC4CC(CC(C4)C2)C3)CC1` ?
Key: False
